# Study Target: Queuine tRNA-ribosyltransferase (Zymomonas mobilis subsp. mobilis (strain ATCC 31821 / ZM4 / CP4), UniProt P28720)
# Sequence (P28720 whole entry): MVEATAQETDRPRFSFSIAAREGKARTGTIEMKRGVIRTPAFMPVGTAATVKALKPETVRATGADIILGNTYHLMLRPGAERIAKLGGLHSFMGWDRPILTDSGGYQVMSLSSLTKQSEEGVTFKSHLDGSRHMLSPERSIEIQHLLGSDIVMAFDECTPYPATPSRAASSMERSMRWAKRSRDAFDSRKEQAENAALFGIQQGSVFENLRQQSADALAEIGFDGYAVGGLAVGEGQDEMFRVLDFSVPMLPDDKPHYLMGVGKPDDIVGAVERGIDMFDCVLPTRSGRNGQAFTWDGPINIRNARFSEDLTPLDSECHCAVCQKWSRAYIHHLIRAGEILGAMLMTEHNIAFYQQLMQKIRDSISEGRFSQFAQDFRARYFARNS
# Method Summary: Enzyme Assay
# Test Settings: pH 7.3
pKi: −log10 of the molar value.
Quantity Measured: pKi

Past entries and their recorded results:
{"Compound String": "Nc1nc2cc3nc[nH]c3cc2c(=O)[nH]1", "Quantity Measured": "pKi", "Experimental Result": 5.39}
{"Compound String": "Cc1nc2cc3nc(N)[nH]c(=O)c3cc2[nH]1", "Quantity Measured": "pKi", "Experimental Result": 5.82}
{"Compound String": "Nc1nc2cc3nc(NCCc4ccccc4)[nH]c3cc2c(=O)[nH]1", "Quantity Measured": "pKi", "Experimental Result": 8.00}
{"Compound String": "Nc1nc2cc3nc(N)[nH]c3cc2c(=O)[nH]1", "Quantity Measured": "pKi", "Experimental Result": 7.11}

(A) Nc1nc2cc3nc(NCc4cccc5ccccc45)[nH]c3cc2c(=O)[nH]1
(B) CN(C)c1ccc2c(=O)[nH]c(N)nc2c1
(C) Nc1nc2cc3nc(NCc4cccs4)[nH]c3cc2c(=O)[nH]1
(D) CN(Cc1ccccc1)c1ccc2c(=O)[nH]c(N)nc2c1
Query :: Reorder the items by pKi, least to greatest. I would appreciate it if you listed the labels in the requested order.
Result :: B, D, A, C
(B: 4.51, D: 5.12, A: 8.26, C: 8.46)

Recorded values, source BindingDB's records for doi:10.1002/cbic.200800782.
